method: Growth inhibition of human Ovarian cancer cells after 48 hrs
Type: functional
settings: Cancer cell lines
log10 of GI50 values by entry
experimental-endpoint: log10 of GI50 (log10 of the value in µM)

>>> numeric_readout("COc1cc2c(cc1C)NC(=O)/C2=C/c1c(Cl)n(C)c2cc(C)c(OC)cc12")
1.48
>>> numeric_readout("Cc1cc2c(cc1O)/C(=C\\c1c(Cl)[nH]c3c1ccc1ccccc13)C(=O)N2")
0.96
>>> numeric_readout("COc1cc2c(/C=C3/C(=O)N(C)c4ccc(O)cc43)c[nH]c2cc1C")
0.75
>>> numeric_readout("CN(C)c1ccc2[nH]c(Cl)c(/C=C3/C(=O)Nc4ccc(O)cc43)c2c1")
0.86
>>> numeric_readout("COc1cc2c(/C=C3/C(=O)N(C)c4ccccc43)c(Cl)n(C)c2cc1C")
-0.42
>>> numeric_readout("CN(C)c1ccc2[nH]c(Cl)c(/C=C3/C(=O)N(C)c4ccc(O)cc43)c2c1")
0.92
>>> numeric_readout("COc1cc2c(/C=C3/C(=O)Nc4cc(Cl)ccc43)c(Cl)n(C)c2cc1C")
-1.52
>>> numeric_readout("COc1cc2c(cc1C)N(C)C(=O)/C2=C/c1c(Cl)n(C)c2cc(C)c(OC)cc12")
1.27
>>> numeric_readout("COc1cc2c(/C=C3/C(=O)Nc4ccc(N(C)C)cc43)c(Cl)n(C)c2cc1C")
1.02
>>> numeric_readout("COc1cc2c(/C=C3/C(=O)N(C)c4ccccc43)c[nH]c2cc1C")
0.89

* * *

Tested on: NSCLC
method: Growth inhibition of human NSCLC cells after 48 hrs
Format: functional
Where a name gives a salt, the structure may show the parent alone.
experimental-endpoint: GI50 (µM)

>>> numeric_readout("CC[C@]1(O)C[C@H]2CN(CCc3c([nH]c4ccccc34)[C@@](C(=O)OC)(c3cc4c(cc3OC)N(C=O)[C@H]3[C@@](O)(C(=O)OC)[C@H](OC(C)=O)[C@]5(CC)C=CCN6CC[C@]43[C@@H]65)C2)C1 [VINCRISTINE SULFATE]")
0.25
>>> numeric_readout("COc1cc2c(/C=C3/C(=O)N(C)c4ccc(O)cc43)c(Cl)n(C)c2cc1C")
0.22
>>> numeric_readout("COc1cc2c(/C=C3/C(=O)N(C)c4ccc(O)cc43)c[nH]c2cc1C")
6.03
>>> numeric_readout("COc1cc2c(cc1C)N(C)C(=O)/C2=C/c1c(Cl)n(C)c2cc(C)c(OC)cc12")
19.5
>>> numeric_readout("COc1ccc2c(c1)/C(=C\\c1c(Cl)[nH]c3ccc(N(C)C)cc13)C(=O)N2")
3.02
>>> numeric_readout("COc1cc2c(/C=C3/C(=O)Nc4ccc(N(C)C)cc43)c(Cl)n(C)c2cc1C")
18.2
>>> numeric_readout("Cc1cc2c(cc1O)/C(=C\\c1c(Cl)[nH]c3c1ccc1ccccc13)C(=O)N2")
7.94
>>> numeric_readout("COc1cc2c(cc1C)NC(=O)/C2=C/c1c[nH]c2ccccc12")
13.5
>>> numeric_readout("CN(C)c1ccc2[nH]c(Cl)c(/C=C3/C(=O)Nc4ccc(Cl)cc43)c2c1")
2.57
>>> numeric_readout("COc1cc2c(/C=C3/C(=O)N(C)c4ccccc43)c[nH]c2cc1C")
6.31
>>> numeric_readout("COc1ccc2[nH]cc(/C=C3/C(=O)Nc4ccccc43)c2c1")
5.13
>>> numeric_readout("COc1cc2c(/C=C3/C(=O)Nc4ccc(Br)cc43)c(Cl)[nH]c2cc1C")
3.02
>>> numeric_readout("COc1cc2c(/C=C3/C(=O)Nc4ccc(Br)cc43)c(Cl)n(C)c2cc1C")
1.91
>>> numeric_readout("COc1cc2c(/C=C3/C(=O)Nc4cc(Cl)ccc43)c(Cl)[nH]c2cc1C")
0.43
>>> numeric_readout("CN(C)c1ccc2[nH]c(Cl)c(/C=C3/C(=O)Nc4ccc(O)cc43)c2c1")
5.13
>>> numeric_readout("COc1cc2c(/C=C3/C(=O)N(C)c4ccccc43)c(Cl)n(C)c2cc1C")
0.58
>>> numeric_readout("COc1cc2c(cc1C)N(C)C(=O)/C2=C/c1c(Cl)[nH]c2ccccc12")
0.58
>>> numeric_readout("CN(C)c1ccc2[nH]c(Cl)c(/C=C3/C(=O)N(C)c4ccc(O)cc43)c2c1")
6.61
>>> numeric_readout("COc1cc2c(/C=C3/C(=O)Nc4cc(Cl)ccc43)c(Cl)n(C)c2cc1C")
0.07
>>> numeric_readout("COc1cc2c(cc1C)NC(=O)/C2=C/c1c(Cl)n(C)c2cc(C)c(OC)cc12")
34.7
>>> numeric_readout("O=C1Nc2cccc(Cl)c2/C1=C\\c1c(Cl)[nH]c2c1ccc1ccccc12")
9.55
